# STD% values compiled below
study-system: N-terminal CRD of hGalectin-4 (Gal-4N) (Homo sapiens, UniProt P56470)
Construct: N-terminal CRD of hGalectin-4 (amino acids 1–150, including an additional C-terminus His-Tag); His-Tag (C, cleaved yes); made in house; host or cells: E. coli BL21 (pET29b)
Sequence (P56470 1-150): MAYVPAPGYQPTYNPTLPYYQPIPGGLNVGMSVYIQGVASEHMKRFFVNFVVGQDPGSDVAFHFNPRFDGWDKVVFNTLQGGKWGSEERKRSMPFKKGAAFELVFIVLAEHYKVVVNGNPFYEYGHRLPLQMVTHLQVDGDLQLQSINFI
run-description: 1H Saturation Transfer Difference (STD) NMR epitope mapping
Assay type: binding
condition-context: 1H-residue H3Galβ
experimental-endpoint: STD% (%)

compound: CC1OC(OC2C(OC3C(CO)OC(O)C(O)C3O)OC(CO)C(O)C2OC2OC(CO)C(O)C(O)C2O)C(O)C(O)C1O (stereo not shown) [B type-6 (tetra)]
recorded-measurement: 29
--
compound: CC(=O)NC1C(OC2C(O)C(CO)OC(OC3C(CO)OC(O)C(O)C3O)C2OC2OC(C)C(O)C(O)C2O)OC(CO)C(O)C1O (stereo not shown) [A type-6 (tetra)]
recorded-measurement: 39
--
compound: CC(=O)NC1C(O)OC(CO)C(OC2OC(CO)C(O)C(OC3OC(CO)C(O)C(O)C3O)C2OC2OC(C)C(O)C(O)C2O)C1O (stereo not shown) [B type-2 (tetra)]
recorded-measurement: 36
--
compound: CC(=O)N[C@H]1[C@@H](O[C@H]2[C@@H](O)[C@@H](CO)O[C@@H](O[C@H]3[C@@H](O)[C@@H](CO)O[C@@H](O[C@@H]4[C@@H](O)[C@H](O)O[C@H](CO)[C@@H]4O)[C@@H]3NC(C)=O)[C@@H]2O[C@@H]2O[C@@H](C)[C@@H](O)[C@@H](O)[C@@H]2O)O[C@H](CO)[C@H](O)[C@@H]1O [A type-4 (penta)]
recorded-measurement: 21

* * *

study-system: N-terminal CRD of hGalectin-4 (Gal-4N) (Homo sapiens, UniProt P56470)
Construct: N-terminal CRD of hGalectin-4 (amino acids 1–150, including an additional C-terminus His-Tag); His-Tag (C, cleaved yes); made in house; host or cells: E. coli BL21 (pET29b)
run-description: 1H Saturation Transfer Difference (STD) NMR epitope mapping
Type: binding
condition-context: 1H-residue H1 Fuc
experimental-endpoint: STD% (%)

molecule: CC(=O)NC1C(OC2C(O)C(CO)OC(OC3C(CO)OC(O)C(O)C3O)C2OC2OC(C)C(O)C(O)C2O)OC(CO)C(O)C1O (centres unmarked) [A type-6 (tetra)]
experimental-endpoint: STD%
units: %
recorded-measurement: 13

molecule: CC(=O)NC1C(O)OC(CO)C(OC2OC(CO)C(O)C(OC3OC(CO)C(O)C(O)C3O)C2OC2OC(C)C(O)C(O)C2O)C1O (centres unmarked) [B type-2 (tetra)]
experimental-endpoint: STD%
units: %
recorded-measurement: 16

molecule: CC(=O)N[C@@H]1[C@@H](O[C@@H]2O[C@H](CO)[C@H](O)[C@H](O[C@H]3O[C@H](CO)[C@H](O)[C@H](O)[C@H]3O)[C@H]2O[C@@H]2O[C@@H](C)[C@@H](O)[C@@H](O)[C@@H]2O)[C@H](O)[C@@H](CO)O[C@H]1O [B type-1 (tetra)]
experimental-endpoint: STD%
units: %
recorded-measurement: 0

molecule: CC(=O)NC1C(OC2C(O)C(O)OC(CO)C2O)OC(CO)C(O)C1OC1OC(CO)C(O)C(OC2OC(CO)C(O)C(O)C2O)C1OC1OC(C)C(O)C(O)C1O (centres unmarked) [B type-4 (penta)]
experimental-endpoint: STD%
units: %
recorded-measurement: 21

molecule: CC1OC(OC2C(OC3C(CO)OC(O)C(O)C3O)OC(CO)C(O)C2OC2OC(CO)C(O)C(O)C2O)C(O)C(O)C1O (centres unmarked) [B type-6 (tetra)]
experimental-endpoint: STD%
units: %
recorded-measurement: 28
